Every entry's value here was drawn from PubChem BioAssay (NCATS).

Test description: Cell Viability - LYMP2-022 (AID 987);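 further: cells exposed to compound for 24 hr; nearly all actives have a fitted effect of over 55% in size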
Reported conditions: LYMP2-022 lymphoblastoid cell viability; series mostly up to 92.2 µM
Records with an inconclusive call do not appear. Activity calls are given as the source filed them. The call rests on the fitted dose curve; in most records, active means well fitted cell-killing curve with a large enough effect; inconclusive means small, poorly fitted or top-dose-only effect; inactive means flat fitted curve, though single readings scatter.
Give one outcome, nothing more. List: 1 for active, 0 for inactive

Q) Lab log entry: "CCCCCCCCC" — outcome as called in the assay?
A) 0

Q) Fill in: this test's call for CC(O)COC(C)(C)C (stereo not given) is ___
A) 0

Q) What is the recorded call for this compound in the test? "COc1ccc(N)c(OC)c1"
A) 0

Q) // return assay outcome for "COc1ccc(N=[N+]([O-])c2ccc(OC)cc2)cc1"
A) 0

Q) For "CCN(Cc1ccccc1)c1ccccc1" , what call appears in the results of this test?
A) 0

Q) Which result was noted for this compound in the test: "CCCCCNCCCCC"
A) 0

Q) Outcome logged for "OCCO" in this assay:
A) 0

Q) Dear colleague, could you share the recorded outcome for "O=P(O)(OCc1ccccc1)OCc1ccccc1" when you have a moment?
A) 0

Q) Tell me the recorded outcome of this test for "ICCc1ccccc1" .
A) 0

Q) Could you kindly confirm the outcome this assay logged for "CC/C=C1/OC(=O)c2ccccc21" ?
A) 0

Q) State the result this test recorded for "OC/C(Br)=C(\Br)CO" .
A) 0

Q) Tell me the assay call for "S=C([S-])NCCNC(=S)[S-].[Zn+2]" please.
A) 0

Q) State the result this test recorded for "Cc1ccc(Cl)cc1" .
A) 0

Q) Which result was noted for this compound in the test: "BrC/C=C/CBr"
A) 0

Q) Lab log entry: "CCOCCOCC" — outcome as called in the assay?
A) 0

Q) Recorded test call requested for "C=C(C)C(=O)OCCCCCC"
A) 0

Q) What outcome does the record of this test show for C/C=C1\CC2C=CC1C2 (stereo not given) ?
A) 0

Q) Per the assay record, what outcome was assigned to "O=C(O[C@@H](C(=O)O)[C@@H](OC(=O)c1ccccc1)C(=O)O)c1ccccc1" ?
A) 0

Q) Hi, do you know how "O=C(Cl)c1c(Cl)cccc1Cl" came out in this test?
A) 0

Q) Hi, sorry to bother you, what did the test record for "Nc1nc(CC(=O)O)cs1" ?
A) 0

Q) State the result this test recorded for "Cc1ccc(C)c(O)c1" .
A) 0

Q) What classification did CC(C)(C)OCC1CO1 (stereo not given) end up with in this test?
A) 0

Q) // outcome(item) with item = CC(O)CC(C)O (stereo not given)
A) 0

Q) Recorded test outcome, item "CCNS(=O)(=O)c1ccc(C)cc1"
A) 0

Q) Tell me the assay call for "ClC/C=C/CCl" please.
A) 0

Q) // outcome(item) with item = "CCCCCCC=O"
A) 0

Q) Just curious, what result did CCCCC(CC)COC(=O)CCCCC(=O)OCC(CC)CCCC (stereo not given) get here?
A) 0

Q) Name the outcome recorded for "O=C(O)c1cc(Cl)cc(Cl)c1" in the assay.
A) 0

Q) Hi team, can someone confirm the assay call for "Nc1ccccc1[N+](=O)[O-]" ?
A) 0

Q) Dear colleague, could you share the recorded outcome for "CC(=O)Nc1ccc(N)cc1" when you have a moment?
A) 0

Q) Could you please tell me the result logged for "O=C(O)c1ccccc1Cl" in this assay?
A) 0

Q) For this compound, state the assay outcome: "O=[N+]([O-])c1ccccc1CCO"
A) 0

Q) Give the logged outcome of this assay for the following compound: CCCCC(CC)COCC1CO1 (stereo not given)
A) 0

Q) Could you please tell me the result logged for "BrC(Br)C(Br)Br" in this assay?
A) 0

Q) Look up the recorded call for "CCC(C)(C)C" in this test.
A) 0

Q) Query: recorded result category for "Nc1cc(Cl)c(N)c(Cl)c1" in this test
A) 0

Q) Tell me the assay call for "Cc1cccc2cccnc12" please.
A) 0

Q) Answer briefly: the call reported for "[O-]/[N+](=N\O)c1ccccc1" in this assay.
A) 0

Q) Please share the test call associated with "CCOc1ccccc1N" .
A) 0

Q) How was "CCOCCO" classified in this test?
A) 0

Q) Which outcome did this test record for the compound "O=C(Cl)c1cccc([N+](=O)[O-])c1" ?
A) 0

Q) Hi, sorry to bother you, what did the test record for "COC(=O)CCCC(=O)OC" ?
A) 0

Q) Hi, sorry to bother you, what did the test record for CCCC(Cl)CCCC(Cl)CCC(Cl)CCC(Cl)CCC(Cl)CCCC(Cl)CCC (stereo not given) ?
A) 0

Q) Entry "CC(C)N(C)C" : call = ?
A) 0

Q) Returns: the outcome recorded for "Cc1ccc(C)c([N+](=O)[O-])c1" in this assay.
A) 0

Q) Can you look up the reported call for "O=Cc1ccc(CO)o1" for me?
A) 0

Q) Called result for "C/C(C=O)=C/c1ccccc1"
A) 0

Q) Outcome? "Cc1ccc2nc(-c3ccc(N)cc3)sc2c1S(=O)(=O)O"
A) 0

Q) Each compound tested received a call. Report the one for "O=C(O)c1ccccc1C(=O)O" .
A) 0

Q) What is the recorded call for this compound in the test? "Cc1cccc(C(=O)O)c1"
A) 0

Q) Which outcome was assigned to CC(N)CN (stereo not given) in this test?
A) 0

Q) For "CCC=O" , what call appears in the results of this test?
A) 0

Q) Just curious, what result did "CC(=O)CC(C)C" get here?
A) 0

Q) Which outcome was assigned to "c1ccc2c(c1)ccc1ncccc12" in this test?
A) 0

Q) Dear colleague, could you share the recorded outcome for "CC(C)=CCl" when you have a moment?
A) 0

Q) Assay outcome for "CC(C)N=C=NC(C)C" : what was it?
A) 0

Q) What call does the record list for "O=CNc1ccccc1" ?
A) 0

Q) I would be grateful if you could indicate the recorded call for "Cc1cccc2sc(N)nc12" .
A) 0

Q) # fetch the recorded call for "CCCCCO" here
A) 0

Q) Any idea what this test logged for "CC(=O)c1cc(C)oc1C" ?
A) 0

Q) Entry "Nc1cccc(C(F)(F)F)c1" : call = ?
A) 0

Q) How was "CCN(CC)c1cccc(O)c1" classified in this test?
A) 0

Q) Could you please tell me the result logged for CC(C=O)Cc1ccc(C(C)(C)C)cc1 (stereo not given) in this assay?
A) 0

Q) Recorded call for CCC(C)O (stereo not given) ?
A) 0

Q) How was "CCCCC/C=C/C=C/C=O" classified in this test?
A) 1

====

Test description: Cell Viability - SK-N-SH (AID 435);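 further: compound exposure lasted 40 h at 37 °C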
Reported conditions: SK-N-SH neuroblastoma cell viability qHTS
Results filed as inconclusive are left out. The source made the active and inactive calls. Calls come from the whole dose curve.
# valid calls are y = active, n = inactive; nothing else

Q) Please share the test call associated with "Cc1ccco1" .
A) n

Q) // outcome(item) with item = "CCc1ccccc1"
A) n

Q) Hi team, can someone confirm the assay call for "CC(C)C(C)C" ?
A) n

Q) # fetch the recorded call for "CC(=O)OC(C)=O" here
A) n

Q) Could you check what this test reported for C=C(C)C(=O)OCC(C)O (stereo unspecified) ?
A) n

Q) Please state the recorded outcome for this molecule: "CCOCCOCC"
A) n

Q) Hello, I am checking results. What call was entered for "COC(=O)CCC(=O)OC" ?
A) n

Q) Given "CCCCC(=O)N(C)C" , state the outcome it received in this test.
A) n

Q) Please indicate how the test categorized CCCCCCCCCCCCOCC1CO1 (stereo unspecified) .
A) n

Q) Short answer needed: outcome of this test for "CCCCCO" ?
A) n

Q) Could you check what this test reported for CC(O)CC(C)O (stereo unspecified) ?
A) n

Q) Please indicate how the test categorized "CC(C)N=C=NC(C)C" .
A) n

Q) Could you kindly confirm the outcome this assay logged for CC(C=O)Cc1ccc(C(C)(C)C)cc1 (stereo unspecified) ?
A) n

Q) What was the test verdict on "O=C(Cl)c1cccc([N+](=O)[O-])c1" ?
A) n

Q) So what was the verdict on "O=C(O)c1ccc(Cl)c(Cl)c1" in this test?
A) n

Q) // outcome(item) with item = "CC1=C(/C=C/C(C)=C/C=C/C(C)=C\C=O)C(C)(C)CCC1"
A) y

Q) Just curious, what result did "CCOc1cc(OCC)c(C(C)=O)cc1OCC" get here?
A) n

Q) Please state the recorded outcome for this molecule: "COc1cccc(N)c1"
A) n

Q) For "N#CCc1ccccc1[N+](=O)[O-]" , which call appears in the assay record?
A) n

Q) What is the recorded call for this molecule in the test? "CCCCCCCN"
A) n

Q) Fill in: this test's call for "Cc1ccccc1C#N" is ___
A) n

Q) Which outcome was assigned to "C=C(C)C(=O)OCCCCCCCCCC" in this test?
A) n

Q) Could you please tell me the result logged for "CC(=O)Nc1ccc(N)cc1" in this assay?
A) n

Q) Recorded test call requested for "Nc1nc(CC(=O)O)cs1"
A) n

Q) Test call for this molecule, please: "Nc1cc(Cl)c([N+](=O)[O-])cc1O"
A) n

Q) # outcome recorded in this test, key = C[C@@H]1CC2(OC[C@]3(C)O[C@H]23)O[C@H]2C[C@@]3(C)[C@@H]4CC[C@H]5C(C)(C)C(O[C@@H]6OC[C@@H](O)[C@H](O)[C@H]6O)CC[C@@]56C[C@@]46CC[C@]3(C)[C@@H]12 (stereo partly specified)
A) n

Q) GET /call?item= "Nc1ccccc1S(=O)(=O)O" returns the recorded outcome of this test.
A) n

Q) For this molecule, state the assay outcome: "CC(=O)Nc1ccccc1C"
A) n

Q) Hi, do you know how "C=C(C)C(=O)OCC(C)C" came out in this test?
A) n

Q) What call does the record list for "O=C(O)CCSSCCC(=O)O" ?
A) n

Q) Which result was noted for this molecule in the test: "N#Cc1ccccc1"
A) n

Q) Per the assay record, what outcome was assigned to "OC(CCl)CCl" ?
A) n

Q) Would you mind telling me which call this test gave "Cc1ccc(C)c([N+](=O)[O-])c1" ?
A) n

Q) What call does the record list for "CSCCC=O" ?
A) n

Q) State the result this test recorded for "CNc1ccc([N+](=O)[O-])cc1" .
A) n

Q) Record request — test call for "NS(=O)(=O)O"
A) n

Q) Outcome logged for "CCOc1cccc(N)c1" in this assay:
A) n

Q) Called result for "Cc1ccc2oc(=O)ccc2c1"
A) n

Q) Fill in: this test's call for "FC(F)(F)c1ccccc1Cl" is ___
A) n

Q) Outcome logged for "C=Cc1ccc(C=C)cc1" in this assay:
A) n

Q) Test call for this molecule, please: "CN(C)c1cccc(O)c1"
A) n

Q) # lookup: test call for "CCNc1ccccc1"
A) n

Q) // param item: "[O-]/[N+](=N\O)c1ccccc1" ; yields the recorded call
A) n

Q) Record lookup: outcome of this test for CC(C)(c1cc(Br)c(OCC(Br)CBr)c(Br)c1)c1cc(Br)c(OCC(Br)CBr)c(Br)c1 (stereo unspecified) ?
A) n

Q) Could you check what this test reported for "CCCCCCCCN" ?
A) n

Q) Call for entry "O=C(O)c1ccccc1[N+](=O)[O-]" :
A) n

Q) Query: recorded result category for "c1ccc2n[nH]nc2c1" in this test
A) n

Q) Would you mind telling me which call this test gave "CCCCC/C=C/C=C/C=O" ?
A) n

Q) Returns: the outcome recorded for "N#CC1(O)CCCCC1" in this assay.
A) n

Q) For "COc1ccc(N=[N+]([O-])c2ccc(OC)cc2)cc1" , what call appears in the results of this test?
A) n

Q) Which outcome did this test record for the molecule "O=C1CCC(=O)O1" ?
A) n

Q) What call does the record list for "NC(=O)c1cccc([N+](=O)[O-])c1" ?
A) n

Q) Record lookup: outcome of this test for "O=C1C=CCCC1" ?
A) n

Q) Please indicate how the test categorized "O=C(O)c1cc(Cl)cc(Cl)c1" .
A) n

Q) Outcome? "C=CCOC(=O)COCCC(C)C"
A) n

Q) Give the logged outcome of this assay for the following molecule: "CNC(=O)c1ccccc1"
A) n

Q) What did this assay record as the result for "CCC(C)(C)C(=O)O" ?
A) n

Q) Recorded test call requested for "CC(C)Cc1nccs1"
A) n

Q) Which outcome did this test record for the molecule CC(C)(C)OCC1CO1 (stereo unspecified) ?
A) n

Q) What outcome does the record of this test show for "O=C(O)c1cccc(Cl)c1Cl" ?
A) n

Q) // outcome(item) with item = "Cc1cc([N+](=O)[O-])ccc1N"
A) n

Q) Could you kindly confirm the outcome this assay logged for "Fc1ccccc1" ?
A) n

Q) For "Cc1cscn1" , which call appears in the assay record?
A) n

Q) // return assay outcome for "CCNc1cc(O)ccc1C"
A) n

Q) Test call, this molecule: "O=Cc1c(Cl)cccc1Cl"
A) n

Q) Returns: the outcome recorded for "Cc1ccccc1C=O" in this assay.
A) n
